methodDescription: Selectivity index, ratio of IC50 for cytotoxicity against HEK293 cells to IC50 for anti-malarial activity against chloroquine-sensitive Plasmodium falciparum NF54 infected in erythrocytes
Format: toxicity, cell-based
conditions: human; read-out: Ratio IC50
Cut-off 10 on selectivity ratio: below means y, at or above means n.

Recorded results for 4 compounds are shown here.
compound	categoryLabel
CC(C)(C)c1ccc(S(=O)(=O)N2CCC[C@@H]2C(=O)N2CCN(c3ccnc4cc(Cl)ccc34)CC2)cc1	n
Cc1cc(C)c(S(=O)(=O)N2CCC[C@@H]2C(=O)N2CCN(c3ccnc4cc(Cl)ccc34)CC2)c(C)c1	y
O=C([C@H]1CCCN1S(=O)(=O)c1ccccc1[N+](=O)[O-])N1CCN(c2ccnc3cc(Cl)ccc23)CC1	n
C=C[C@H]1CN2CC[C@H]1C[C@H]2[C@H](O)c1ccnc2ccc(OC)cc12 [QUININE]	n

Enquiry: Decide: selectivity ratio of O=C([C@H]1CCCN1S(=O)(=O)c1cc(Cl)ccc1Cl)N1CCN(c2ccnc3cc(Cl)ccc23)CC1 strictly below 10?
Return: y

Enquiry: Another compound to look at: O=C([C@H]1CCCN1S(=O)(=O)c1ccccc1)N1CCN(c2ccnc3cc(Cl)ccc23)CC1
Return: n

====

methodDescription: Selectivity index, ratio of IC50 for cytotoxicity against HEK293 cells to IC50 for anti-malarial activity against chloroquine-sensitive Plasmodium falciparum NF54 infected in erythrocytes
Assay type: toxicity, cell-based
conditions: human; read-out: Ratio IC50
reportedProperty: selectivity ratio
Numbers only.

chemicalSmiles	selectivity ratio
COc1ccc(S(=O)(=O)N2CCC[C@@H]2C(=O)N2CCN(c3ccnc4cc(Cl)ccc34)CC2)cc1	14.3

Report selectivity ratio for each item below.
1. O=C([C@H]1CCCN1S(=O)(=O)c1ccc2ccccc2c1)N1CCN(c2ccnc3cc(Cl)ccc23)CC1
2. Cc1ccc(S(=O)(=O)N2CCC[C@@H]2C(=O)N2CCN(c3ccnc4cc(Cl)ccc34)CC2)cc1
3. O=C([C@H]1CCCN1S(=O)(=O)c1ccc(Cl)cc1)N1CCN(c2ccnc3cc(Cl)ccc23)CC1

Return:
1. 7.06
2. 57.1
3. 7.27
